Recorded TGI by entry
System: LOX IMVI melanoma
PROTOCOL_TEXT: NCI tumour cell line growth inhibition, 48 h

Below: 3 compounds and their reported TGI.
CC(=O)OCC1OC(OC2CC3C(C)(C)C(OC(C)=O)CC[C@]3(C)C3CCC45CC4(CCC5[C@@H](C)C[C@H](O)C(O)C(C)(C)O)[C@]23C)C(O)C(O)C1O (some centres undefined)
> 10 µM
Cn1c2ccc3cc2c(=S)c2cc(ccc21)OCCOCCOCCOCCOCCO3
> 10 µM
O=C(OCN1C(=O)C2C3C=CC(C2C1=O)C1C2C(=O)N(COC(=O)C4CCCN4)C(=O)C2C31)C1CCCN1 (centres undefined)
> 64.5 µM

# next compound below
Query: Reported TGI, compound Clc1ccc(N=Nc2nc3ccccc3nc2N=Nc2ccc(Cl)cc2Cl)c(Cl)c1 : ____
Reply: > 100 µM

* * *

Tested on: HOP-62 NSCLC
PROTOCOL_TEXT: NCI tumour cell line growth inhibition, 48 h; in the data active = GI50 below about 0.43 µM; inactive = the rest
Hello, when you answer, please use one of the following outcomes: active, inactive

Worked examples, 3 molecules total:
Cc1ccc(C(CC(=O)c2ccccc2)C2C(=O)NC(=O)NC2=O)cc1 (stereo not given)
inactive
C=CCC1(O)c2ccccc2C(=O)c2c(NCCN(CC(=O)OCC)CC(=O)OCC)cccc21 (stereo not given)
inactive
CN1CCN(CCOc2ccc(-c3cnc4c(-c5ccc(C(F)(F)F)cc5)cnn4c3)cc2)CC1
inactive

Query: Short answer needed: outcome of this test for O=C1c2cccc(NCCN=Cc3cc([N+](=O)[O-])ccc3O)c2C(=O)c2c(NCCN=Cc3cc([N+](=O)[O-])ccc3O)cccc21 ?
Reply: inactive

Query: Short answer needed: outcome of this test for N#CCCN(CCCN(CCCN(C(=O)Nc1ccccc1)c1ccccc1)C(=O)Nc1ccccc1)C(=O)Nc1ccccc1 ?
Reply: inactive

Query: Short answer needed: outcome of this test for C[C@]12CCc3sc(NCCc4ccccc4)nc3C1=CC[C@@H]1[C@@H]2CC[C@]2(C)C(=O)CC[C@@H]12 ?
Reply: inactive

Query: Short answer needed: outcome of this test for Nc1nc(N)c2nc(CNc3ccc(C(=O)NC(CC(=O)O)C(=O)O)cc3)cnc2n1 (stereo not given) ?
Reply: inactive

Query: Short answer needed: outcome of this test for COc1cc2c(cc1O)CC[C@@H]1[C@@H]2CC[C@]2(C)[C@@H](OCCN(C)C)CC[C@@H]12 ?
Reply: active

Query: Short answer needed: outcome of this test for NC(=O)c1ccc(I)c(N=O)c1 ?
Reply: inactive

Query: Short answer needed: outcome of this test for COc1cccc2c1ccc1nc3cccc(C(=O)N[C@H](C)CN(C)C)c3nc12 ?
Reply: active

Query: Short answer needed: outcome of this test for Cc1cc(Cl)ccc1Nc1nc(C(F)(F)F)ccc1C(=O)N/N=C/c1ccc(Cl)cc1 ?
Reply: inactive

Query: Short answer needed: outcome of this test for c1csc(-c2cn3nc(-c4c[nH]c5ccccc45)sc3n2)c1 ?
Reply: inactive

Query: Short answer needed: outcome of this test for COc1cc(Nc2c(C#N)cnc3cc(OCCCN4CCN(C)CC4)c(OC)cc23)c(Cl)cc1Cl ?
Reply: inactive

Query: Short answer needed: outcome of this test for COc1cccc([C@H]2C/C(=N\NC(=O)C(=O)N[C@@H](C)c3ccccc3)c3ccccc3N2)c1 ?
Reply: active

Query: Short answer needed: outcome of this test for CC1(N)CCN(c2cccnc2NC(=O)c2nc(-c3ncccc3C(F)(F)F)cnc2N)CC1 ?
Reply: inactive

Query: Short answer needed: outcome of this test for O=C(Nc1cccc(-n2cc(-c3ccncc3)c(-c3cc(O)cc(Cl)c3)n2)c1)Nc1ccc(Cl)c(C(F)(F)F)c1 ?
Reply: inactive

Query: Short answer needed: outcome of this test for CCN(Cc1ccc(F)cc1)c1ccc(CO)c(F)c1 ?
Reply: inactive

Query: Short answer needed: outcome of this test for COc1ccc(-c2nc(-c3ccccc3)c(-c3ccccc3)[nH]2)cc1OC1CCCC1 ?
Reply: inactive

Query: Short answer needed: outcome of this test for COc1ccc(C(=O)/C=C/c2cccc([N+](=O)[O-])c2)c(OC)c1 ?
Reply: inactive

Query: Short answer needed: outcome of this test for Cc1cc(O)c(C2=NN(c3ccc(S(N)(=O)=O)cc3)C(c3ccccc3Cl)C2)cc1Cl (stereo not given) ?
Reply: inactive

Origin of measurements: PubChem BioAssay (NCI)
